target: Bromodomain-containing protein 3 (Homo sapiens, UniProt Q15059); assay: Binding affinity to human BRD3 domain 1 assessed as dissociation constant by isothermal titration calorimetry assay
Sequence (Q15059 whole entry, the tested form may be a part): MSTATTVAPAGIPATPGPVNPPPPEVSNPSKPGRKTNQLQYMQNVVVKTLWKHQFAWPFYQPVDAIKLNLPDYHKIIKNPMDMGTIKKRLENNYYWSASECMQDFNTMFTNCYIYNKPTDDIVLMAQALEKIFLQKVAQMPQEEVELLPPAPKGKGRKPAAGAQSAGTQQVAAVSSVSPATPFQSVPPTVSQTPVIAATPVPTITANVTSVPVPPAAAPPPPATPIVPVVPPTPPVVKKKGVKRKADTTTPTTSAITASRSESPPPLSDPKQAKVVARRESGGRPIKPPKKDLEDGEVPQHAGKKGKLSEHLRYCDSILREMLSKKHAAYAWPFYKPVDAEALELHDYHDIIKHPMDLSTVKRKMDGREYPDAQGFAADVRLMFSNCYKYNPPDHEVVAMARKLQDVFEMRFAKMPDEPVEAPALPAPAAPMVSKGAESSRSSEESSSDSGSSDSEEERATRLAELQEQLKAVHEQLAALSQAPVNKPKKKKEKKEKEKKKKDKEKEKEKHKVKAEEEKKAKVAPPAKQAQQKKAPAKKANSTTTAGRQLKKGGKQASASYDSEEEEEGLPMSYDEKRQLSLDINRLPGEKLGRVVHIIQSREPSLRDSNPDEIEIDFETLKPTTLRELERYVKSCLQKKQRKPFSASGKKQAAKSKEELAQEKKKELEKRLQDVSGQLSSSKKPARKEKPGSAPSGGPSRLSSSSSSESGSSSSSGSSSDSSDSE
MEASUREMENT NAME: pKd
# pKd is unitless: minus log10 of the molar concentration; print number only

- CCc1c(C(=O)Nc2cc(/C=C/C(=O)NO)ccc2OC)[nH]c(C)c1C(C)=O: 5.25
- Cc1[nH]c(C(=O)Nc2cc(S(=O)(=O)N3CCOCC3)ccc2OCCCCCCCC(=O)NO)c2c1C(=O)CCCC2: 7.43
- COc1ccc(S(=O)(=O)n2ccc(/C=C/C(=O)NO)c2)cc1NC(=O)c1[nH]c(C)c2c1CCCCC2=O: 5.82

# input Which pKd reading was recorded for the compound CCc1c(C(=O)Nc2cc(S(=O)(=O)N(CC)CC)ccc2O)[nH]c(C)c1C(C)=O ?
# output 6.42
